procedure_summary: Spectroscopic measurements (absorption, emission, quantum yield, extinction coefficient)
Type: physicochemical
test_settings: BDNCA library, extinction coefficient; in M-1 cm-1 (unit assumed)
For each of the compounds below, state its ε.

Below: 2 compounds and their reported ε.
>>> value_reported("COc1ccc(Br)cc1/C=C/c1cc(C)c2n1[B-](F)(F)[N+]1=CC=CC1=C2c1ccc(NC(=O)CCl)cc1 [BDNCA-54]")
"38,169"
>>> value_reported("CC1=CC(/C=C/C=C(c2ccccc2)c2ccccc2)=[N+]2C1=C(c1ccc(NC(=O)CCl)cc1)c1cccn1[B-]2(F)F [BDNCA-85]")
"49,977"

For each entry beneath this line, provide reported ε.
1. CC1=CC(/C=C/c2cc(Cl)cc(Cl)c2O)=[N+]2C1=C(c1ccc(NC(=O)CCl)cc1)c1cccn1[B-]2(F)F [BDNCA-57]
2. CC1=CC(/C=C/c2ccc(OC(F)(F)F)cc2)=[N+]2C1=C(c1ccc(NC(=O)CCl)cc1)c1cccn1[B-]2(F)F [BDNCA-68]
3. Cc1cc(/C=C/c2ccccc2OCC(=O)O)n2c1C(c1ccc(NC(=O)CCl)cc1)=C1C=CC=[N+]1[B-]2(F)F [BDNCA-128]
4. COc1cccc(/C=C/C2=[N+]3C(=C(c4ccc(NC(=O)CCl)cc4)c4cccn4[B-]3(F)F)C(C)=C2)c1OC [BDNCA-83]
5. CC1=CC(/C=C/c2ccc(-c3cccc(Cl)c3)o2)=[N+]2C1=C(c1ccc(NC(=O)CCl)cc1)c1cccn1[B-]2(F)F [BDNCA-284]

Given back:
23,066
27,735
14,554
40,366
31,579
